# SUBJECT_OF_TEST: T1, human LTBP1-proTGFβ1 complex (human, UniProt Q14766 347-1721; P01137 30-390)
# T1 construct: Large latent complex: one presenting molecule disulfide-linked to a proTGFβ1 dimer; also called Hu LTBP1-proTGFβ1; huLTBP1 proTGFβ1
# MEASUREMENT_PROTOCOL: SPR Biacore 8K, Fab over captured antigen
binders and their reported pKd
Value format note: pKd is -log10 of concentration (mol/L); just state the number.

Example results:
SR-AB54-HuFab (Fab, V domains shown, Human Fab; also called SR-AB54 Fab) VH: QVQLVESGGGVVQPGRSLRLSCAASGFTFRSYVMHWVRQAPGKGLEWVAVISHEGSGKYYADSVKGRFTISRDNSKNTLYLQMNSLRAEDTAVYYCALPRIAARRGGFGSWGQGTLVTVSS VL: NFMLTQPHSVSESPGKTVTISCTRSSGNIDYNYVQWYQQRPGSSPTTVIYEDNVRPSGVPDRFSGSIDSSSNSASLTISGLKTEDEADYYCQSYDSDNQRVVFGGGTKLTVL: 10.31
SR-AB55-HuFab (Fab, V domains shown, Human Fab; also called SR-AB55 Fab) VH: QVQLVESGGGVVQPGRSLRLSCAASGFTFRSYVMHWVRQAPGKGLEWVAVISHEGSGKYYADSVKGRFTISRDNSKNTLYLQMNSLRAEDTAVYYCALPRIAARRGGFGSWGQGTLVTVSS VL: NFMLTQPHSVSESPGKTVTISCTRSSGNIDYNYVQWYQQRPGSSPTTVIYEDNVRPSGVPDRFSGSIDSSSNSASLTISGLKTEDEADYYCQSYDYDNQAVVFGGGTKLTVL: 9.88

Okay, now this binder:
The measured pKd associated with SR-AB49-HuFab (Fab, V domains shown, Human Fab; also called SR-AB49 Fab) VH: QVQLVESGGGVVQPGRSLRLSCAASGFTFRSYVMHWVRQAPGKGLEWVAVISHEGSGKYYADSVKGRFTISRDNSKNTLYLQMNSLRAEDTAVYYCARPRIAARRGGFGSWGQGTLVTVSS VL: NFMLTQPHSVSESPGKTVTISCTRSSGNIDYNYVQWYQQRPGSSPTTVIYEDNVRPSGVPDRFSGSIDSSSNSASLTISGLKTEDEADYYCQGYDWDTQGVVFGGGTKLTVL reads 9.77
